PROCEDURE SUMMARY: first dissolution test in DMSO or water
TEST PARAMETERS: first dissolution test; amount for a 3M solution in 0.5 mL; DMSO, up to 15000 μL
MEASURED QUANTITY: Total volume of DMSO for dissolving the p-TSA derivatives

Look over these answered cases.
NS(=O)(=O)c1ccc(C(=O)O)cc1 : 960 (with pipetting) μL
Cc1ccc(S(=O)(=O)N2CC(=NNC(=O)C3CN(S(=O)(=O)c4ccc(C)cc4)C3)C2)cc1 : insoluble in 15000 μL
Cc1ccc(S(=O)(=O)NCCF)cc1 : insoluble in 15000 μL
Cc1ccc(S(=O)(=O)N2CCC(O)CC2)cc1 : insoluble in 15000 μL

Query: Item under review: CC(=O)NS(=O)(=O)c1ccc(C)cc1 [PTSA002] . Reported Total volume of DMSO for dissolving the p-TSA derivatives?
Response: insoluble in 15000 μL

* * *

PROCEDURE SUMMARY: first dissolution test in DMSO or water
TEST PARAMETERS: first dissolution test; amount for a 3M solution in 0.5 mL; water, up to 15000 μL
MEASURED QUANTITY: Total volume of water for dissolving the p-TSA derivatives

Cc1ccc(S(=O)(=O)NCC(C)O)cc1 (stereo not drawn) : insoluble in 15000 μL
Cc1ccc(S(=O)(=O)N2CC[C@@H](O)C2)cc1 : insoluble in 15000 μL
Cc1ccc(S(=O)(=O)N2CCC[C@H]2CO)cc1 : insoluble in 15000 μL

* * *

IC50 values, listed per item
Test system: human liver cancer cell lines Hep3B
PROCEDURE SUMMARY: SRB growth inhibition of liver cancer cells
Type: cell-based
TEST PARAMETERS: Homo sapiens, Hep3B, 48 h, derivative dissolved in DMSO; 48 hours; SRB; read-out: IC50 of Hep3B in DMSO

Query: # lookup: IC50 of "Cc1ccc(S(=O)(=O)N[C@@H](CO)C(=O)O)cc1"
Response: > 10 mM

Query: Return reported IC50; argument: "Cc1ccc(S(=O)(=O)N2CC3(COC3)C2)cc1"
Response: > 2 mM

Query: What value of measured IC50 is listed for "NS(=O)(=O)c1ccc(C(=O)O)cc1" ?
Response: > 7 mM

Query: Consider the molecule "Cc1ccc(S(=O)(=O)N[C@@H](C)C(=O)O)cc1" and give its measured IC50.
Response: > 3 mM
